Entries and their GI50 values follow.
tested on: U-251; experiment: Growth inhibition of human U251 cells after 48 hrs by sulforhodamine B assay; format: functional; conditions: U-251, 48 h

CCOC(=O)C1=C(C)NC(=S)NC1c1ccc(F)cc1 (centres undefined)    28.3 µg/mL
CCOC(=O)C1=C(C)NC(=O)NC1c1ccccc1 (centres undefined)    > 250 µg/mL
CCOC(=O)C1=C(C)NC(=S)NC1C1CCCCC1 (centres undefined)    25.2 µg/mL
CCOC(=O)C1=C(C)NC(=S)NC1c1ccc(SC)cc1 (centres undefined)    6 µg/mL

## Input Fill in the blank: the reported GI50 of CCOC(=O)C1=C(C)NC(=S)N[C@H]1c1cccc(O)c1 is ____.
## Output 24 µg/mL

## Input How about CCCC1NC(=S)NC(C)=C1C(=O)OCC (centres undefined) ?
## Output 29.2 µg/mL

## Input How about CCOC(=O)C1=C(C)NC(=O)NC1c1ccc(O)c(OC)c1 (centres undefined) ?
## Output 4.5 µg/mL

## Input How about COc1cccc2c1C(=O)c1c(O)c3c(c(O)c1C2=O)C[C@@](O)(C(=O)CO)C[C@@H]3O[C@H]1C[C@H](N)[C@H](O)[C@H](C)O1 ?
## Output 0.068 µg/mL

## Input How about CCOC(=O)C1=C(C)NC(=O)NC1c1ccc(O)cc1 (centres undefined) ?
## Output 4.2 µg/mL
